# measurement.description: In vivo pharmacokinetics after IV injection in cannulated rats
# test.settings: Sprague Dawley, rat, plasma, 56 mg/kg conjugate
measured.parameter: half-life (h)
Lab book: enter the figure in h, no units written.

Prompt line: So what does the record say about half-life for C[C@@H](O)[C@@H]1NC(=O)[C@H](CCCCN)NC(=O)[C@@H](Cc2c[nH]c3ccccc23)NC(=O)[C@H](Cc2ccccc2)NC(=O)[C@@H](NC(=O)[C@H](N)Cc2ccccc2)CSSCC(C(=O)N[C@H](CO)[C@@H](C)O)NC1=O (relative stereo) [Octreotide] ?
Response line: 50

Source of measurements: patent US10413594B2
